# EXPERIMENT DESCRIPTION: Inhibition of urease from Sporosarcina pasteurii CCM 2056 using urea as substrate by Berthelot colorimetric assay
# TEST PARAMETERS: read-out: Ki
pKi: −log10 of the molar value.
RECORDED ENDPOINT: pKi

> print(dat)
                           molecule  recorded.endpoint  recorded.result
 1                    CNCP(=O)(O)CN                pKi             5.80
 2                     NCP(=O)(O)CN                pKi             4.10
 3                  CCCNCP(=O)(O)CN                pKi             4.95
 4                   CNCP(=O)(O)CNC                pKi             5.37
 5              CCCCCCCNCP(=O)(O)CN                pKi             3.27
 6               CCCCCCNCP(=O)(O)CN                pKi             6.97
 7   O=P(O)(CNCc1ccccc1)CNCc1ccccc1                pKi             4.52
 8                CCCCCNCP(=O)(O)CN                pKi             4.88
 9         CN(Cc1ccccc1)CP(=O)(O)CN                pKi             4.85
10                 CN(C)CP(=O)(O)CN                pKi             5.33
11  CC(=O)NO [ACETOHYDROXAMIC ACID]                pKi             5.48
12                 CCCCNCP(=O)(O)CN                pKi             5.02
13               CC(C)CNCP(=O)(O)CN                pKi             3.57
